Biological target: Human PD-L1/PD-1 (Homo sapiens, UniProt Q9NZQ7)
Construct: made in house; host or cells: HEK293T
Sequence (Q9NZQ7 with tags, fused parts or gaps): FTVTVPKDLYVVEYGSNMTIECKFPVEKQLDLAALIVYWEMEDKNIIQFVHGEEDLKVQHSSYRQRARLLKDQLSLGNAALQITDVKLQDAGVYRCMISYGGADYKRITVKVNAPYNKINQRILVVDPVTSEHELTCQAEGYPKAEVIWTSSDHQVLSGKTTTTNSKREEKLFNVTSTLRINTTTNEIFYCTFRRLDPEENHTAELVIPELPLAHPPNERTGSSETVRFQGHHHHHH
Assay: HTRF PD-1-Ig/PD-L1-His binding assay (human PD-L1)
Conditions: cluster symbol; read-out: HTRF IC50 cluster
pIC50: −log10 of the molar value. Positions of bridges follow the written chain, without caps; N, C: chain ends. Non-standard residues stand in square brackets, D forms with d. Residues, ends and D or L forms follow the SMILES beside them. ξ: configuration not given here. Phe(3,4-Cl2) = N[C@@H](Cc1ccc(Cl)c(Cl)c1)C(=O)O; Ala(2-furyl) = N[C@@H](Cc1ccco1)C(=O)O; Phe(4-F) = N[C@@H](Cc1ccc(F)cc1)C(=O)O; Hyp = O=C(O)[C@@H]1C[C@@H](O)CN1; NMeF = CN[C@@H](Cc1ccccc1)C(=O)O; NMeNle = CCCC[C@H](NC)C(=O)O; NMeA = CN[C@@H](C)C(=O)O; ξC = NC(CS)C(=O)O; Sar = CNCC(=O)O
So I've got a bunch of compounds here, and I need their pIC50 values.

Exercise: Quote pIC50 reported for CCCC[C@H]1C(=O)N(C)[C@@H](CCCC)C(=O)N[C@@H]([C@@H](C)O)C(=O)N[C@H](C(=O)NCC(N)=O)CSCC(=O)N[C@@H](Cc2ccccc2)C(=O)N(C)[C@@H](C)C(=O)N[C@@H](CC(N)=O)C(=O)N2CCC[C@H]2C(=O)N[C@@H](Cc2cnc[nH]2)C(=O)N[C@@H](CC(C)C)C(=O)N(C)CC(=O)N[C@@H](Cc2c[nH]c3ccccc23)C(=O)N[C@@H](CO)C(=O)N[C@@H](Cc2c[nH]c3ccccc23)C(=O)N1C [Example 5021] ({CH2CO}-F[NMeA]NPHL[Sar]WSW[NMeNle][NMeNle]TCG-NH2; thioether N-14) please.
Solution: < 7.52

Exercise: Provide one value: measured pIC50 of CCCC[C@H]1C(=O)N(C)[C@@H](CCCC)C(=O)N[C@@H](CCCNC(=N)N)C(=O)N[C@H](C(=O)NCC(N)=O)CSCC(=O)N[C@@H](Cc2ccco2)C(=O)N(C)[C@@H](C)C(=O)N[C@@H](CC(N)=O)C(=O)N2CCC[C@H]2C(=O)N[C@@H](Cc2cnc[nH]2)C(=O)N[C@@H](CC(C)C)C(=O)N(C)CC(=O)N[C@@H](Cc2c[nH]c3ccccc23)C(=O)N[C@@H](CO)C(=O)N[C@@H](Cc2c[nH]c3ccccc23)C(=O)N1C [Example 1099] ({CH2CO}-[Ala(2-furyl)][NMeA]NPHL[Sar]WSW[NMeNle][NMeNle]RCG-NH2; thioether N-14)
Solution: < 7.52

Exercise: For the compound CCCC[C@H]1C(=O)N(C)[C@@H](CCCC)C(=O)N[C@@H](CCCNC(=N)N)C(=O)NC(C(=O)NCC(N)=O)CSCC(=O)N[C@@H](Cc2ccc(O)cc2)C(=O)N(C)[C@@H](C)C(=O)N[C@@H](CC(N)=O)C(=O)N2CCC[C@H]2C(=O)N[C@@H](CO)C(=O)N[C@@H](CC(C)C)C(=O)N2C[C@H](O)C[C@H]2C(=O)N[C@@H](Cc2c[nH]c3ccccc23)C(=O)N[C@@H](CO)C(=O)N[C@@H](Cc2c[nH]c3ccccc23)C(=O)N1C (some centres unmarked) [Example 9074] ({CH2CO}-Y[NMeA]NPSL[Hyp]WSW[NMeNle][NMeNle]R[ξC]G-NH2; thioether N-14) , report pIC50.
Solution: 8.17 to 9.41

Exercise: Answer with the recorded pIC50 of CCCC[C@H]1C(=O)N(C)[C@@H](CCCC)C(=O)N[C@@H](CCCNC(=N)N)C(=O)N[C@H](C(=O)NCC(N)=O)CSCC(=O)N[C@@H](Cc2ccccc2)C(=O)N(C)[C@@H](C)C(=O)N[C@@H](CC(N)=O)C(=O)N2CCC[C@H]2C(=O)N[C@@H](Cc2cnc[nH]2)C(=O)N[C@@H](C(C)C)C(=O)N(C)CC(=O)N[C@@H](Cc2c[nH]c3ccccc23)C(=O)N[C@@H](CO)C(=O)N[C@@H](Cc2c[nH]c3ccccc23)C(=O)N1C [Example 6007] ({CH2CO}-F[NMeA]NPHV[Sar]WSW[NMeNle][NMeNle]RCG-NH2; thioether N-14) only.
Solution: 7.52 to 8.17

Exercise: Please supply the value of reported pIC50 for the item CCCC[C@H]1C(=O)N(C)CC(=O)N[C@@H](CC(=O)O)C(=O)N[C@@H](C(C)C)C(=O)N[C@@H](Cc2ccc(F)cc2)C(=O)N[C@@H](Cc2ccc(O)cc2)C(=O)N(C)CC(=O)N[C@@H](Cc2c[nH]c3ccccc23)C(=O)N[C@@H](Cc2ccc(O)cc2)C(=O)N[C@@H](CC(C)C)C(=O)N[C@H](C(=O)NCC(N)=O)CSCC(=O)N[C@@H](Cc2ccccc2)C(=O)N(C)[C@@H](Cc2ccccc2)C(=O)N1C [Example 3570] ({CH2CO}-F[NMeF][NMeNle][Sar]DV[Phe(4-F)]Y[Sar]WYLCG-NH2; thioether N-13)
Solution: < 7.52

Exercise: Give recorded pIC50. CCCC[C@H]1C(=O)N(C)CC(=O)N[C@@H](CC(=O)O)C(=O)N[C@@H](C(C)C)C(=O)N(C)[C@@H](Cc2ccccc2)C(=O)N[C@@H](Cc2ccc(O)cc2)C(=O)N(C)CC(=O)N[C@@H](Cc2c[nH]c3ccccc23)C(=O)N[C@@H](Cc2ccc(Cl)c(Cl)c2)C(=O)N[C@@H](CC(C)C)C(=O)N[C@H](C(=O)NCC(N)=O)CSCC(=O)N[C@@H](Cc2ccccc2)C(=O)N(C)[C@@H](Cc2ccccc2)C(=O)N1C [Example 3100] ({CH2CO}-F[NMeF][NMeNle][Sar]DV[NMeF]Y[Sar]W[Phe(3,4-Cl2)]LCG-NH2; thioether N-13)
Solution: < 7.52

Exercise: State its pIC50 for this compound: CCCC[C@H]1C(=O)N(C)[C@@H](CCCC)C(=O)N[C@@H](CCCNC(=N)N)C(=O)N[C@H](C(=O)NCC(N)=O)C/C=C/C(=O)N[C@@H](Cc2ccc(O)cc2)C(=O)N(C)[C@@H](C)C(=O)N[C@@H](CC(N)=O)C(=O)N2CCCC2C(=O)N[C@@H](CN)C(=O)N[C@@H](CC(C)C)C(=O)N2C[C@H](O)C[C@H]2C(=O)N[C@@H](Cc2c[nH]c3ccccc23)C(=O)N[C@@H](CO)C(=O)N[C@@H](Cc2c[nH]c3ccccc23)C(=O)N1C (some centres unmarked) [Example 7013]
Solution: 7.52 to 8.17

Exercise: Report measured pIC50; entry is CCCC[C@H]1C(=O)N(C)[C@@H](CCCC)C(=O)N[C@@H](C)C(=O)N[C@H](C(=O)NCC(N)=O)CSCC(=O)N[C@@H](Cc2ccc(O)cc2)C(=O)N(C)[C@@H](C)C(=O)N[C@@H](CC(=O)O)C(=O)N2CCC[C@H]2C(=O)N[C@@H](Cc2cnc[nH]2)C(=O)N[C@@H](CC(C)C)C(=O)N2C[C@H](O)C[C@H]2C(=O)N[C@@H](Cc2c[nH]c3ccccc23)C(=O)N[C@@H](CO)C(=O)N[C@@H](Cc2c[nH]c3ccccc23)C(=O)N1C [Example 1165]
Solution: 8.17 to 9.41

* * *

Target: Human PD-L1/PD-1 (Homo sapiens, UniProt Q9NZQ7)
Construct: made in house; host or cells: HEK293T
Assay: HTRF PD-1-Ig/PD-L1-His binding assay (human PD-L1)
Settings: cluster symbol; read-out: HTRF IC50 cluster
pIC50: −log10 of the molar value. Positions of bridges follow the written chain, without caps; N, C: chain ends. Non-standard residues stand in square brackets, D forms with d. Residues, ends and D or L forms follow the SMILES beside them. ξ: configuration not given here. Phe(3,5-Cl2) = N[C@@H](Cc1cc(Cl)cc(Cl)c1)C(=O)O; Bip = N[C@@H](Cc1ccc(-c2ccccc2)cc1)C(=O)O; Bta = N[C@@H](Cc1csc2ccccc12)C(=O)O; Hyp = O=C(O)[C@@H]1C[C@@H](O)CN1; NMeF = CN[C@@H](Cc1ccccc1)C(=O)O; NMeNle = CCCC[C@H](NC)C(=O)O; NMeM = CN[C@@H](CCSC)C(=O)O; NMeA = CN[C@@H](C)C(=O)O; Dab = NCC[C@H](N)C(=O)O; Dap = NC[C@H](N)C(=O)O; ξhCys = NC(CCS)C(=O)O; ξC = NC(CS)C(=O)O; Sar = CNCC(=O)O
Readout kind: pIC50

Exercise: Given the compound CCCC[C@H]1C(=O)N(C)[C@@H](CCCC)C(=O)N[C@@H](CCCNC(=N)N)C(=O)N[C@H](C(=O)NCC(N)=O)CSCC(=O)N[C@@H](Cc2ccccc2)C(=O)N(C)[C@@H](C)C(=O)N[C@@H](CC(N)=O)C(=O)N2CCC[C@H]2C(=O)N[C@@H](Cc2cnc[nH]2)C(=O)N[C@@H](CC(C)C)C(=O)N(C)CC(=O)N[C@@H](Cc2ccc(-c3ccccc3)cc2)C(=O)N[C@@H](CO)C(=O)N[C@@H](Cc2c[nH]c3ccccc23)C(=O)N1C [Example 1007] ({CH2CO}-F[NMeA]NPHL[Sar][Bip]SW[NMeNle][NMeNle]RCG-NH2; thioether N-14) , write its reported pIC50.
Solution: < 7.52

Exercise: # return recorded pIC50 for input CCCC[C@H]1C(=O)N(C)[C@@H](CCCC)C(=O)N[C@@H](C)C(=O)N[C@H](C(=O)NCC(N)=O)CSCC(=O)N[C@@H](Cc2ccc(O)cc2)C(=O)N(C)[C@@H](C)C(=O)N[C@@H](CCN)C(=O)N2CCC[C@H]2C(=O)N[C@@H](Cc2c[nH]cn2)C(=O)N[C@@H](CCC(=O)O)C(=O)N2C[C@H](O)C[C@H]2C(=O)N[C@@H](Cc2c[nH]c3ccccc23)C(=O)N[C@@H](CO)C(=O)N[C@@H](Cc2c[nH]c3ccccc23)C(=O)N1C [Example 5087] ({CH2CO}-Y[NMeA][Dab]PHE[Hyp]WSW[NMeNle][NMeNle]ACG-NH2; thioether N-14)
Solution: 8.17 to 9.41

Exercise: Give the value of pIC50 reported for the following: CCCC[C@H]1C(=O)N(C)[C@@H](CCCC)C(=O)N[C@@H](CCN)C(=O)N[C@H](C(=O)NCC(N)=O)CSCC(=O)N[C@@H](Cc2ccc(O)cc2)C(=O)N(C)[C@@H](C)C(=O)N[C@@H](CC(N)=O)C(=O)N2CCC[C@H]2C(=O)N[C@@H](Cc2cnc[nH]2)C(=O)N[C@@H](CC(C)C)C(=O)N2C[C@H](O)C[C@H]2C(=O)N[C@@H](Cc2c[nH]c3ccccc23)C(=O)N[C@@H](CO)C(=O)N[C@@H](Cc2c[nH]c3ccccc23)C(=O)N1C
Solution: 8.17 to 9.41

Exercise: Supply reported pIC50 belonging to this compound: CCCC[C@H]1C(=O)N(C)[C@@H](CCCC)C(=O)N[C@@H](C)C(=O)N[C@H](C(=O)NCC(N)=O)CSCC(=O)N[C@@H](Cc2ccc(O)cc2)C(=O)N(C)[C@@H](C)C(=O)N[C@@H](CC(N)=O)C(=O)N2CCC[C@H]2C(=O)N[C@@H](CN)C(=O)N[C@@H](CC(=O)O)C(=O)N2C[C@H](O)C[C@H]2C(=O)N[C@@H](Cc2c[nH]c3ccccc23)C(=O)N[C@@H](CO)C(=O)N[C@@H](Cc2c[nH]c3ccccc23)C(=O)N1C [Example 1170] ({CH2CO}-Y[NMeA]NP[Dap]D[Hyp]WSW[NMeNle][NMeNle]ACG-NH2; thioether N-14)
Solution: 8.17 to 9.41

Exercise: Using known records, supply pIC50 for CCCC[C@H]1C(=O)N(C)[C@@H](CCSC)C(=O)N[C@@H](C)C(=O)NC(C(=O)NCC(N)=O)CSCC(=O)N[C@@H](Cc2ccc(O)cc2)C(=O)N(C)[C@@H](C)C(=O)N[C@@H](CC(N)=O)C(=O)N2CCC[C@H]2C(=O)N[C@@H](CN)C(=O)N[C@@H](CC(C)C)C(=O)N2CCC[C@H]2C(=O)N[C@@H](Cc2c[nH]c3ccccc23)C(=O)N[C@@H](CO)C(=O)N[C@@H](Cc2csc3ccccc23)C(=O)N1C (some centres unmarked) [Example 9086] ({CH2CO}-Y[NMeA]NP[Dap]LPWS[Bta][NMeNle][NMeM]A[ξC]G-NH2; thioether N-14)
Solution: 8.17 to 9.41

Exercise: Give pIC50 for CCCC[C@H]1C(=O)N(C)CC(=O)N[C@@H](CC(=O)O)C(=O)N[C@@H](C(C)C)C(=O)N(C)[C@@H](Cc2ccccc2)C(=O)N[C@@H](Cc2ccc(O)cc2)C(=O)N(C)CC(=O)N[C@@H](Cc2c[nH]c3ccccc23)C(=O)N[C@@H](Cc2ccc(O)cc2)C(=O)N[C@@H](CC(C)C)C(=O)N[C@H](C(=O)NCC(N)=O)CSCC(=O)N[C@@H](Cc2cc(Cl)cc(Cl)c2)C(=O)N(C)[C@@H](Cc2ccccc2)C(=O)N1C [Example 3179] ({CH2CO}-[Phe(3,5-Cl2)][NMeF][NMeNle][Sar]DV[NMeF]Y[Sar]WYLCG-NH2; thioether N-13)
Solution: < 7.52

Exercise: Fill in reported pIC50 for this entry: CCCC[C@H]1C(=O)N(C)[C@@H](CCCC)C(=O)N[C@@H](CCCNC(=N)N)C(=O)NC(C(=O)NCC(N)=O)CCSCC(=O)N[C@@H](Cc2ccc(O)cc2)C(=O)N(C)[C@@H](C)C(=O)N[C@@H](CC(N)=O)C(=O)N2CCC[C@H]2C(=O)N[C@@H](Cc2cnc[nH]2)C(=O)N[C@@H](CC(C)C)C(=O)N2CCC[C@H]2C(=O)N[C@@H](Cc2c[nH]c3ccccc23)C(=O)N[C@@H](CO)C(=O)N[C@@H](Cc2csc3ccccc23)C(=O)N1C (some centres unmarked) [Example 9018] ({CH2CO}-Y[NMeA]NPHLPWS[Bta][NMeNle][NMeNle]R[ξhCys]G-NH2; thioether N-14)
Solution: 7.52 to 8.17

Exercise: Look up and state reported pIC50 for CCCC[C@H]1C(=O)N(C)[C@@H](CCCC)C(=O)N[C@@H](CCCN)C(=O)N[C@H](C(=O)NCC(N)=O)CSCC(=O)N[C@@H](Cc2ccc(O)cc2)C(=O)N(C)[C@@H](C)C(=O)N[C@@H](CC(N)=O)C(=O)N2CCC[C@H]2C(=O)N[C@@H](CN)C(=O)N[C@@H](CC(C)C)C(=O)N2C[C@H](Cc3ccc(F)cc3)C[C@H]2C(=O)N[C@@H](Cc2c[nH]c3ccccc23)C(=O)N[C@@H](CO)C(=O)N[C@@H](Cc2c[nH]c3ccccc23)C(=O)N1C
Solution: 8.17 to 9.41

The values you see were collected from patent US9850283B2.
